- subject_of_test: endogenously expressed TGR5 in NCI H716 (Homo sapiens, UniProt Q8TDU6)
- Construct: human caecum carcinoma cell line NCI-H716 which endogenously expresses human TGR5; endogenous in cells; host or cells: NCI-H716
- Sequence (Q8TDU6 whole entry): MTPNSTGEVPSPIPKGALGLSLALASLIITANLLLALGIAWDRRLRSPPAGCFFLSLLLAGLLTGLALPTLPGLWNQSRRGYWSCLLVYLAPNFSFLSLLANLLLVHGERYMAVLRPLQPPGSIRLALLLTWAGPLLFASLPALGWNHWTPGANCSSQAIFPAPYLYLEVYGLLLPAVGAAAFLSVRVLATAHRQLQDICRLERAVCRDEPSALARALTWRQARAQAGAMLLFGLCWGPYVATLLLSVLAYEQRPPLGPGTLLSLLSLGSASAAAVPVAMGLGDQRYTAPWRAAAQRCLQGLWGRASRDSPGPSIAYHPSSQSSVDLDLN
- measurement_notes: Cell-based TGR5 assay, NCI-H716 cells endogenously expressing human TGR5, cAMP by HTRF
- experimental_context: 30 min at 37 C, 22 nM to 50 μM, read-out: pEC50 endogenously expressed TGR5 in NCI H716 (converted)
endpoint_label: EC50

> print(dat)
                                   compound  experimental.result
1  CN(C[C@H](O)[C@@H](O)[C@H](O)[C@H](O)CO)C(=O)NCCOc1cc(Cl)c(CNC2(C(=O)N3CCN(C4CC4)c4ccccc43)CC2)cc1Cl [Example 188]       126 to 1000 nM
2  CN(Cc1cc(Cl)ccc1Cl)C1(C(=O)N2CCN(C3CC3)c3ccccc32)CC1 [Example 27]     1260 to 50100 nM
3  O=C([C@@H]1CCC(=O)N1Cc1cc(Cl)ccc1Cl)N1CCN(C2CC2)c2ccccc21 [Example 25]     1260 to 50100 nM
4  O=C(COc1cc(Cl)ccc1Cl)N1CCN(C2CC2)c2ccccc21 [Example 4]           > 50100 nM
5  O=C(N1CCN(C2CC2)c2ccccc21)C1(OCc2cc(Cl)ccc2Cl)CNC1 [Example 50]     1260 to 50100 nM
6  O=C(N1CCN(C2CC2)c2ccccc21)N1CCCC1Cc1ccccc1Cl (centres unmarked) [Example 28]     1260 to 50100 nM
7  O=C(N1CCN(C2CC2)c2ccccc21)C1(NCc2cc(C(F)(F)F)ccc2Cl)CC1 [Example 255]             < 100 nM
8  CC(NCc1cc(Cl)ccc1Cl)C(=O)N1CCN(C2CC2)c2ccccc21 (centres unmarked) [Example 7]     1260 to 50100 nM
